Answer each item with its documented inhibition at 1 µM.
Biological target: panel of 255 wild-type kinases (Homo sapiens, UniProt P54760)
Sequence (P54760 16-987): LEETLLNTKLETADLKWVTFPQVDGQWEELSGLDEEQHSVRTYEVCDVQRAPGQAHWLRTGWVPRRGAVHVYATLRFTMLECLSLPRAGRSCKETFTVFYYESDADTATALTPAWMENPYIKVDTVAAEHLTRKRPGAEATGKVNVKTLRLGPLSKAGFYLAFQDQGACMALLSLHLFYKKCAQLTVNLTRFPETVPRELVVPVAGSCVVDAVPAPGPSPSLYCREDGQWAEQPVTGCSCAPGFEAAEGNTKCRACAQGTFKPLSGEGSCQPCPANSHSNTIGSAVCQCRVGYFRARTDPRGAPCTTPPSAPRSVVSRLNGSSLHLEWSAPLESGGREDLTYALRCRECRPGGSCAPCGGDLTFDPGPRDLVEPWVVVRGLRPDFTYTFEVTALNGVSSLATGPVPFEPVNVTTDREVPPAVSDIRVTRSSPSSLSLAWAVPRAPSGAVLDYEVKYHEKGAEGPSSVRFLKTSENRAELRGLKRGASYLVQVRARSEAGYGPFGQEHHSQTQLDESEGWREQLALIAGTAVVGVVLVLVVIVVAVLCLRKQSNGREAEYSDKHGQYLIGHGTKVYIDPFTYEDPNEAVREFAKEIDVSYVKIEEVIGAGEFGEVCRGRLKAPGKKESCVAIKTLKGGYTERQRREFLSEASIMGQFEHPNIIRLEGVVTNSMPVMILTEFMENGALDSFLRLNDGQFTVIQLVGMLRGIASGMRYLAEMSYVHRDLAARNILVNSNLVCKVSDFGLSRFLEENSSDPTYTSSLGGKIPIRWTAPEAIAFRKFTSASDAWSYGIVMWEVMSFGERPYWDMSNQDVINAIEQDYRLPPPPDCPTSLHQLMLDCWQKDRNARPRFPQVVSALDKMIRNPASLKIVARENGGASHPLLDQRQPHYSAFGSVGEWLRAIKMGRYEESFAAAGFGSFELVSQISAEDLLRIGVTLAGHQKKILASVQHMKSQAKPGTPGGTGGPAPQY
Test: Kinase panel profiling at 1 µmol/L (MSA or IMAP), percentage inhibition
Type: biochemical
Settings: kinase EPHB4; 1 µmol/L single concentration; read-out: %-inhibition at 1 µmol/L, EPHB4
Give bare numbers, in %.

• COC(=O)N[C@@H](C)CNc1nccc(-c2cn(C(C)C)nc2-c2cc(Cl)cc(NS(C)(=O)=O)c2F)n1 = -0.672

Would you mind listing inhibition at 1 µM for each of the following compounds?
1. CO[C@]1(C(=O)N[C@@H](C)c2ccc(-n3cc(F)cn3)nc2)CC[C@H](c2nc(C)cc(Nc3cc(C)[nH]n3)n2)CC1
2. COc1ccc(CN2C3CC2CN(c2ccc(-c4cc(OCC(C)(C)O)cn5ncc(C#N)c45)cn2)C3)cn1
3. C=CC(=O)N1CCC([C@@H]2CCNc3c(C(N)=O)c(-c4ccc(Oc5ccccc5)cc4)nn32)CC1
4. Cn1cnc2c(F)c(Nc3ccc(Br)cc3F)c(C(=O)NOCCO)cc21
5. Cn1cc(-c2cc3c(N4CCN(c5ncc([C@@](C)(N)c6ccc(F)cc6)cn5)CC4)ncnn3c2)cn1
6. Cc1cc(Nc2ncnc3ccc(NC4=NC(C)(C)CO4)cc23)ccc1Oc1ccn2ncnc2c1

Completion:
[56, 73, -2.82, -0.0401, 34, -0.489]

Would you mind listing inhibition at 1 µM for each of the following compounds?
1. COc1cc2ncnc(Nc3ccc(F)c(Cl)c3)c2cc1NC(=O)/C=C/CN1CCCCC1
2. Cc1nc(NC(=O)N2CCC[C@H]2C(N)=O)sc1-c1ccnc(C(C)(C)C(F)(F)F)c1
3. CN1CCN(c2ccc(C(=O)Nc3n[nH]c4ccc(Cc5cc(F)cc(F)c5)cc34)c(NC3CCOCC3)c2)CC1

Completion:
62
3.19
73
